Test system: Saccharomyces cerevisiae
experiment-description: protein stability index of tFT-peptide fusion (C-terminal peptide) (PSI (0-1 scale)); higher = more stable (slower turnover)
test-settings: genetic background: wild type; temperature: 30 C
measurement-name: protein stability index

Take a look at these entries with their results.
NFEKPCLIQDGK [FMP48 C-terminal 12 aa]; 0.706
YTNLIASKVKKQ [YKL177W C-terminal 12 aa]; 0.65
VFPGNYVQLNKN [RVS167 C-terminal 12 aa]; 0.679
AFLKIFENAMPN [ADD37 C-terminal 12 aa]; 0.678
AVIVHSYTVQHM [TRM3 C-terminal 12 aa]; 0.632
TASGEDSHLLKQ [BRL1 C-terminal 12 aa]; 0.689

The recorded protein stability index for entry AEHHLQTFLSEK [ISC1 C-terminal 12 aa] equals 0.641

Per the record, KARIVVAKSGEL [CPR1 C-terminal 12 aa] has protein stability index of 0.645

Input QVTAVVVSYQGV [ATG11 C-terminal 12 aa] . Output protein stability index: 0.6

Record HDHHNDVPEAPV [RAD1 C-terminal 12 aa] , field protein stability index: 0.692

YEKVVELWNKVV [MNT4 C-terminal 12 aa] yielded protein stability index of 0.199

Input KQAQEGTKNLKI [PAC10 C-terminal 12 aa] . Output protein stability index: 0.666

====

List of protein stability index values.
Tested on: Saccharomyces cerevisiae
experiment-description: protein stability index of tFT-peptide fusion (C-terminal peptide) (PSI (0-1 scale)); higher = more stable (slower turnover)
test-settings: genetic background: wild type; temperature: 30 C
Give your answer as a number; write no unit.

Reported protein stability index ( FFSFILGGFLLG ) = 0.668

# sequence FWKSVMRYYFKR ; its protein stability index = 0.669

The recorded protein stability index for VVGGGDWRWGVW is 0.771

Given item FQAYPPFSLVPA , the value recorded as its protein stability index is 0.553

In plain terms, GWLLGVGDEFRR has a documented protein stability index of 0.734

For QVAIEKTTHVQE the sequence record lists protein stability index as 0.637

Entry GRGLRVCWVWSG , protein stability index reported as 0.286

Looking up DTCWHELILAFS , I found its protein stability index recorded as 0.592

For reference, reported protein stability index for TSRRPFVLVMWL stands at 0.485

====

System: Saccharomyces cerevisiae
experiment-description: protein stability index of tFT-peptide fusion (C-terminal peptide) (PSI (0-1 scale)); higher = more stable (slower turnover)
test-settings: genetic background: cdc34-1; temperature: 37 C
measurement-name: protein stability index
Keep it simple and answer with nothing but the number.

Worked set:
ALFISLAIWNWS; 0.0849
WLYPVFKISYCV; 0.492
ILFWSLLVSTIR; 0.13
FLLVGLLIVGCG; 0.175
MPQSLKKMVFLA; 0.431

Read the next record carefully.
Item: SVLCLFSRLRSV | protein stability index: 0.625

====

Test system: Saccharomyces cerevisiae
experiment-description: protein stability index of tFT-peptide fusion in wild type (PSI (0-1 scale)); higher = more stable (slower turnover)
test-settings: genetic background: wild type
Recorded protein stability index by entry
Number, no unit, nothing else.

Here are 3 sequences together with their reported answers.
FSMRWTFRYWVE; 0.502
RSLRVLLPLYDR; 0.652
HSMRWTFRYWVN; 0.0543

In plain terms, LKIIRQKMNHQN has a documented protein stability index of 0.204

Short answer for ALVSLPILLFFR : protein stability index was 0.0758

Item: VTGAVGGWRLVG | protein stability index: 0.141

So, PDKRNELIKLLN ? Its protein stability index was 0.115

// protein stability index value for AITLPMCILLLR : 0.091

Reported protein stability index for GLYMYSVGCWFR was 0.238

Value of protein stability index reported for the sequence ARWRVGLVRGAS is 0.614

Kindly note the recorded protein stability index for RSERVLLPLYFR , which is 0.365

Input AITLPMCPLSLR . Output protein stability index: 0.596
